Biological target: A1R (Homo sapiens)
Sequence (P30542 1-326): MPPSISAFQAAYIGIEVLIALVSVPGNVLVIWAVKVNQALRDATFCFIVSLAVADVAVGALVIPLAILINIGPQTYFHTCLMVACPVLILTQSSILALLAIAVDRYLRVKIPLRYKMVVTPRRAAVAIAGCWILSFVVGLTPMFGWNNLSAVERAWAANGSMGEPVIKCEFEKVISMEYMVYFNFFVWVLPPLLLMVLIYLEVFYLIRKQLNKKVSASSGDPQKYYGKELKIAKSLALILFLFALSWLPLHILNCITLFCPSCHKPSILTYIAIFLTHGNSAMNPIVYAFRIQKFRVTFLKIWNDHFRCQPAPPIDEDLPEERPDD
Test: cAMP accumulation assay
Format: cell-based
Details: HEK293, read-out: A1 functional efficacy (Emax %)
Observation type: Emax

>  <Compound>
CC(=O)Nc1ccc(-c2c(C#N)c(N)nc(SCc3cccc(C)n3)c2C#N)cc1 [22g]

>  <Meas value>
122%

$$$$
>  <Compound>
COc1ccc(-c2nc(SCc3ncc[nH]3)nc(N)c2C#N)cc1 [21c]

>  <Meas value>
1.4%

$$$$
>  <Compound>
COc1cccc(-c2nc(SCc3cccc(C)n3)nc(N)c2C#N)c1 [21b]

>  <Meas value>
3.4%

$$$$
>  <Compound>
Cc1cccc(CSc2nc(N)c(C#N)c(-c3cccc(O)c3)c2C#N)n1 [22e]

>  <Meas value>
109%

$$$$
>  <Compound>
COc1cccc(-c2c(C#N)c(N)nc(SCc3cccc(C)n3)c2C#N)c1 [22b]

>  <Meas value>
16%

$$$$
>  <Compound>
N#Cc1c(N)nc(SCc2ncc[nH]2)nc1-c1cccc(O)c1 [21f]

>  <Meas value>
41%

$$$$
>  <Compound>
COc1ccc(-c2c(C#N)c(N)nc(SCc3cccc(C)n3)c2C#N)cc1 [22a]

>  <Meas value>
-0.06%

$$$$
>  <Compound>
COc1ccc(-c2nc(SCc3cccc(C)n3)nc(N)c2C#N)cc1 [21a]

>  <Meas value>
-2%

$$$$
>  <Compound>
Cc1cccc(CSc2nc(N)c(C#N)c(-c3cccc(O)c3)n2)n1 [21e]

>  <Meas value>
18%

$$$$
>  <Compound>
COc1cccc(-c2nc(SCc3ncc[nH]3)nc(N)c2C#N)c1 [21d]

>  <Meas value>
4.9%

$$$$

Data origin: paper PMC8327296
